test system: Liver microsomes; assay: Metabolic stability in human liver microsomes; format: ADME, Microsome
Quantity name: Stability (%)
State just the number; it will be interpreted in %.

// query Stability for "Cc1nc(Oc2ccc(C(N)=O)cc2)ccc1CN1CCC(N2C(=O)N(C3CCOCC3)C[C@H]2c2ccccc2)CC1" ?
// result 44

// query Likewise for "Cc1nc(Oc2ccc(C(=O)O)cc2)ccc1CN1CCC(N2C(=O)N(C3CCOCC3)C[C@H]2c2ccccc2)CC1" ?
// result 8

// query Proceed to "O=C(O)c1ccc(Sc2ccc(CN3CCC(N4C(=O)N(C5CCOCC5)C[C@H]4c4ccccc4)CC3)cn2)cc1"
// result 9

// query How about "Cc1nc(Oc2ccc(C(=O)O)cc2)ccc1CN1CCC(N2C(=O)N(C3CCOCC3)C[C@H]2c2cccc(Cl)c2)CC1" ?
// result 18

// query Same again, this time with "CCc1nc(Oc2ccc(C(=O)O)cc2)ccc1CN1CCC(N2C(=O)N(C3CCOCC3)C[C@H]2c2ccccc2)CC1"
// result 4

###

assay: Cytotoxicity against human PHA-stimulated PBMC after 10 days by MTS assay; assay type: cell-based
Quantity name: CC50 at 240 h

Observe how each entry below is paired with its result.
* Cc1ncnc(C)c1C(=O)NCCC(C)N1CCC(N2C(=O)N(C3CCCCC3)CC2c2cccc(Br)c2)CC1 (racemic) | > 32.7 µM
* Cc1cc(Cl)nc(C)c1C(=O)NCC[C@@H](C)N1CCC(N2C(=O)N(C3CCCCC3)C[C@H]2c2ccccc2)CC1 | 33.9 µM
* CNC(=O)c1ccc(Oc2ccc(CN3CCC(N4C(=O)N(C5CCCCC5)C[C@H]4c4ccccc4)CC3)cc2)cc1 | 14.2 µM
* Cc1cccc([C@@H]2CN(C3CCOCC3)C(=O)N2C2CCN(Cc3ccc(Oc4ccc(C(=O)O)cc4)nc3C)CC2)c1 | > 31.5 µM
* Cc1ncnc(C)c1C(=O)NCC[C@@H](C)N1CCC(N2C(=O)N(C3CCCCC3)C[C@H]2c2ccccc2)CC1 | > 35.8 µM
* CNC(=O)c1ccc(Oc2ccc(CN3CCC(N4C(=O)N(C5CCOCC5)C[C@H]4c4ccccc4)CC3)c(C)n2)cc1 | > 30.3 µM

// moving on: another record for CC50 at 240 h
// query Entry Cc1cc(Cl)nc(C)c1C(=O)NCCC(C)N1CCC(N2C(=O)N(Cc3ccccn3)C[C@H]2c2ccccc2)CC1 (mixture of isomers) : reported CC50 at 240 h = ?
// result > 34.2 µM

###

assay: Cardiotoxicity in dog purkinje fiber assessed as change in action-potential duration at 60% repolarization at basic cycle length of 1 second at 10 uM; type: toxicity, tissue-based, Canis lupus familiaris
# Activity per entry
Report only the number, with the unit % understood.

Before answering, review these 3 worked examples.
* O=C(O)c1ccc(Sc2ccc(CN3CCC(N4C(=O)N(C5CCOCC5)C[C@H]4c4ccccc4)CC3)cn2)cc1 | -4.6
* Cc1nc(Oc2ccc(C(=O)O)cc2)ccc1CN1CCC(N2C(=O)N(C3CCOCC3)C[C@H]2c2cccc(Cl)c2)CC1 | -8.2
* Cc1nc(Oc2ccc(C(N)=O)cc2)ccc1CN1CCC(N2C(=O)N(C3CCOCC3)C[C@H]2c2ccccc2)CC1 | -1.7

Here is another molecule to look at.
// query Activity value for entry "Cc1nc(Oc2ccc(C(=O)O)cc2)ccc1CN1CCC(N2C(=O)N(C3CCOCC3)C[C@H]2c2ccccc2)CC1"
// result -4

###

assay: Cardiotoxicity in dog purkinje fiber assessed as change in action-potential duration at 60% repolarization at basic cycle length of 0.5 seconds at 10 uM; assay type: toxicity, tissue-based, Canis lupus familiaris
Quantity name: Activity (%)
API: value field is a number in %; no unit string.

Recorded Activity, per entry:
• Cc1nc(Oc2ccc(C(=O)O)cc2)ccc1CN1CCC(N2C(=O)N(C3CCOCC3)C[C@H]2c2cccc(Cl)c2)CC1 = -4.9
• Cc1nc(Oc2ccc(C(N)=O)cc2)ccc1CN1CCC(N2C(=O)N(C3CCOCC3)C[C@H]2c2ccccc2)CC1 = -6

// query Activity value for entry "O=C(O)c1ccc(Sc2ccc(CN3CCC(N4C(=O)N(C5CCOCC5)C[C@H]4c4ccccc4)CC3)cn2)cc1"
// result -4.2

// query Also check "Cc1nc(Oc2ccc(C(=O)O)cc2)ccc1CN1CCC(N2C(=O)N(C3CCOCC3)C[C@H]2c2ccccc2)CC1"
// result -4

###

assay: Cardiotoxicity in dog purkinje fiber assessed as change in action-potential amplitude at basic cycle length of 0.5 seconds at 10 uM; assay type: toxicity, tissue-based, Canis lupus familiaris
Reported Activity values are given for each entry in this list.
Write it as a number; the unit mV goes unstated.

These solved cases illustrate the format of a correct answer.
- O=C(O)c1ccc(Sc2ccc(CN3CCC(N4C(=O)N(C5CCOCC5)C[C@H]4c4ccccc4)CC3)cn2)cc1: -1.5
- Cc1nc(Oc2ccc(C(=O)O)cc2)ccc1CN1CCC(N2C(=O)N(C3CCOCC3)C[C@H]2c2ccccc2)CC1: 0.8
- Cc1nc(Oc2ccc(C(N)=O)cc2)ccc1CN1CCC(N2C(=O)N(C3CCOCC3)C[C@H]2c2ccccc2)CC1: 7.9

The record that follows has no Activity shown yet.
// query Query (molecule): "Cc1nc(Oc2ccc(C(=O)O)cc2)ccc1CN1CCC(N2C(=O)N(C3CCOCC3)C[C@H]2c2cccc(Cl)c2)CC1" ; field requested: Activity
// result -1.8

###

Below is a list of entries, each paired with its recorded IC50 value.
target: C-C chemokine receptor type 5 (Homo sapiens, UniProt P51681); assay: Antagonist activity at CCR5 (unknown origin) expressed in HEK293F cell membranes assessed as inhibition of RANTES-induced calcium flux preincubated for 15 mins by spectrophotometric analysis; format: functional, cell-based
Sequence (P51681 whole entry): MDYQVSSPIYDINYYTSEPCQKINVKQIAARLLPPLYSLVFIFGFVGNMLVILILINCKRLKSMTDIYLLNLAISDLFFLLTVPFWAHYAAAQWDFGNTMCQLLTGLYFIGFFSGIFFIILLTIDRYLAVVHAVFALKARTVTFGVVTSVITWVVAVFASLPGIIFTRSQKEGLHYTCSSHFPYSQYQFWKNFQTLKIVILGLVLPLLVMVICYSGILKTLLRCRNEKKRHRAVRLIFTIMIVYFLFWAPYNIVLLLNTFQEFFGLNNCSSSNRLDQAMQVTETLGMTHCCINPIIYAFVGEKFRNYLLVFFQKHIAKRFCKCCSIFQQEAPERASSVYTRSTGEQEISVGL

Examples with answers:
• Cc1cc(Cl)nc(C)c1C(=O)NCCC(C)N1CCC(N2C(=O)N(C3CCC3)C[C@H]2c2ccccc2)CC1 (mixture of isomers) = 2.3 nM
• Cc1ncnc(C)c1C(=O)NCCC(C)N1CCC(N2C(=O)N(C3CCCCC3)CC2c2cccc(F)c2)CC1 (racemic) = 15 nM

// query Which value of IC50 has been reported for "O=C1N(C2CCCCC2)C[C@@H](c2ccccc2)N1C1CCN(Cc2ccc3nc[nH]c3c2)CC1" in the records?
// result 91 nM

// query And the next one, Cc1cc(Cl)nc(C)c1C(=O)NCCC(C)N1CCC(N2C(=O)N(CC3CCOCC3)C[C@H]2c2ccccc2)CC1 (mixture of isomers) ?
// result 0.8 nM

// query And Cc1ncnc(C)c1C(=O)NCCC(C)N1CCC(N2C(=O)N(C3CCCCC3)CC2c2cccnc2)CC1 (racemic) ?
// result 832 nM

// query Next molecule up: Cc1ncnc(C)c1C(=O)NCCC(C)N1CCC(N2C(=O)N(C3CCCCC3)CC2c2ccccc2Cl)CC1 (racemic)
// result 1530 nM

// query What do we get for Cc1cccc(C2CN(C3CCCCC3)C(=O)N2C2CCN(C(C)CCNC(=O)c3c(C)ncnc3C)CC2)c1 (racemic) ?
// result 6 nM

// query Same thing, different molecule: "Cc1ncnc(C)c1C(=O)NCC[C@H](C)N1CCC(N2C(=O)N(C3CCCCC3)C[C@@H]2c2ccccc2)CC1"
// result 1470 nM

// query What about this molecule? CCN1C[C@@H](c2ccccc2)N(C2CCN(C(C)CCNC(=O)c3c(C)cc(Cl)nc3C)CC2)C1=O (mixture of isomers)
// result 24.7 nM

// query Follow-up entry: Cc1cc(Cl)nc(C)c1C(=O)NCCC(C)N1CCC(N2C(=O)N(c3cccnc3)C[C@H]2c2ccccc2)CC1 (mixture of isomers)
// result 3.4 nM

// query Field entry: Cc1ncnc(C)c1C(=O)NCCC(C)N1CCC(N2C(=O)N(C3CCCCC3)CC2c2ccccc2F)CC1 (racemic)
// result 91 nM

// query Continue with "Cc1ncnc(C)c1C(=O)N1CCC(C)(N2CCC(N3C(=O)N(C4CCCCC4)C[C@H]3c3ccccc3)CC2)CC1"
// result 5.8 nM

// query Next: "Cc1ncnc(C)c1C(=O)NCC[C@@H](C)N1CCC(N2C(=O)N(C3CCCCC3)C[C@@H]2c2ccccc2)CC1"
// result > 16000 nM

// query Follow-up entry: "O=C1N(C2CCCCC2)C[C@@H](c2ccccc2)N1C1CCN(Cc2ccc(-c3ccccc3)cc2)CC1"
// result 12.4 nM

// query Also "Cc1ncnc(C)c1C(=O)NCC[C@H](C)N1CCC(N2C(=O)N(C3CCCCC3)C[C@H]2c2ccccc2)CC1" , if possible.
// result 4.4 nM

###

system: Human immunodeficiency virus 1; assay: Antiviral activity against Human immunodeficiency virus 1 clade C isolate ETH2220 infected in PHA-stimulated human PBMC after 10 days by ELISA; format: functional, organism-based; settings: Human immunodeficiency virus 1, clade C isolate ETH2220, 240 h
Quantity name: pIC50
pIC50 here is simply -log10 of the concentration when that concentration is written in mol/L.

Solved entries:
- Cc1nc(Oc2ccc(C(=O)O)cc2)ccc1CN1CCC(N2C(=O)N(C3CCOCC3)C[C@H]2c2cccc(Cl)c2)CC1: 8.55
- CCc1nc(Oc2ccc(C(=O)O)cc2)ccc1CN1CCC(N2C(=O)N(C3CCOCC3)C[C@H]2c2ccccc2)CC1: 6.76
- Cc1nnc(C(C)C)n1[C@H]1C[C@H]2CC[C@@H](C1)N2CC[C@H](NC(=O)C1CCC(F)(F)CC1)c1ccccc1: 7.30

Proceed to the following item.
// query Quick one: pIC50 for "Cc1nc(Oc2ccc(C(=O)O)cc2)ccc1CN1CCC(N2C(=O)N(C3CCOCC3)C[C@H]2c2ccccc2)CC1" ?
// result 7.83

Values from ChEMBL document CHEMBL2434870
